Assignment: determine reported pIC50 for the given molecules.
Target Or Test System: Cholinesterase (Homo sapiens)
Sequence (P06276 whole entry): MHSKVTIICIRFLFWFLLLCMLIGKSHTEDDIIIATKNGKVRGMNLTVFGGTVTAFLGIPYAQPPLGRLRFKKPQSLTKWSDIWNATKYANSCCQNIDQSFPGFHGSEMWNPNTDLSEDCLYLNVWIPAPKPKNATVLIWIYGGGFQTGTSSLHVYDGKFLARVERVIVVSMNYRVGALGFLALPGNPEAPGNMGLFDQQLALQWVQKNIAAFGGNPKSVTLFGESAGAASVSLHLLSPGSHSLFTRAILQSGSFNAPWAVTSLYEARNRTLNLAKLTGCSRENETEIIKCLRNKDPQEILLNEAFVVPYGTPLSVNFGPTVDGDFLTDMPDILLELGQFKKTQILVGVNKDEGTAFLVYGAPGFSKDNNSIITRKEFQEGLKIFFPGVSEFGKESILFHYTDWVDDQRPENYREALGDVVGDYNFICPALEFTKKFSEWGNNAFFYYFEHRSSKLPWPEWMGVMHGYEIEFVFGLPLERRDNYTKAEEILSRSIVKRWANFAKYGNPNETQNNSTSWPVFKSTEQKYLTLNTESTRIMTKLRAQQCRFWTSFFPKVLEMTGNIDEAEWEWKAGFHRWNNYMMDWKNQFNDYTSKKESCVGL
Assay Text: Inhibition of human BChE using butyrylthiocholine iodide as substrate incubated for 20 mins followed by substrate addition by Ellman's method
Measurement Conditions: read-out: IC50
Scale for pIC50: -log10 of concentration given in mol/L; no unit attached.

(Q) Quick check: pIC50 of CN1c2ccc(OC(=O)NCCCCCCNC(=O)/C=C/c3ccccc3)cc2CN2CCc3ccccc3C21 (stereo not given) ?
(A) 6.35

(Q) Quick check: pIC50 of CN1c2ccc(OC(=O)NCCCCNC(=O)/C=C/c3ccccc3)cc2CN2CCc3ccccc3C21 (stereo not given) ?
(A) 6.66

(Q) Quick check: pIC50 of COc1ccc2[nH]cc(CCNC(=O)CCCCCCNC(=O)Oc3ccc4c(c3)CN3CCc5ccccc5C3N4C)c2c1 (stereo not given) ?
(A) 6.99

(Q) Quick check: pIC50 of Cc1c(C)c2c(c(C)c1O)CCC(C)(C(=O)NCCCCCCNC(=O)Oc1ccc3c(c1)CN1CCc4ccccc4C1N3C)O2 (stereo not given) ?
(A) 6.59

(Q) Quick check: pIC50 of COc1cc(/C=C/C(=O)NCCCCCCNC(=O)Oc2ccc3c(c2)CN2CCc4ccccc4C2N3C)ccc1O (stereo not given) ?
(A) 6.78
